Reference source: the NIST ThermoML archive (doi:10.1016/j.fluid.2019.01.028)

# Protocol Summary: activity coefficient (dimensionless); of the first substance listed, at infinite dilution; xn = mol fraction of the nth substance listed
# Condition: 333 K; Liquid; Chromatography; x1 = 0
Label Fulfilled when activity coefficient is at or above 2; otherwise label Not fulfilled.

- Molecule: "Clc1ccccc1 [chlorobenzene] + CCCCn1cc[n+](C)c1.[Cl-]"
  Class Name: "Fulfilled"
- Molecule: "c1ccccc1 [benzene] + CCCC[n+]1ccn(C)c1.O=S(=O)([N-]S(=O)(=O)C(F)(F)F)C(F)(F)F"
  Class Name: "Not fulfilled"
- Molecule: "CCO [ethanol] + CCCCn1cc[n+](C)c1.[Cl-]"
  Class Name: "Not fulfilled"
- Molecule: "CCCO [propan-1-ol] + CCCCn1cc[n+](C)c1.[Cl-]"
  Class Name: "Not fulfilled"

Note: attention shifts to another entry.
Could you tell me if the measured activity coefficient of Clc1ccccc1 [chlorobenzene] + CCCC[n+]1ccn(C)c1.O=S(=O)([N-]S(=O)(=O)C(F)(F)F)C(F)(F)F reaches 2 or more?
Not fulfilled

* * *

In this section, each of the compounds is paired with its reported activity coefficient.
# Protocol Summary: activity coefficient (dimensionless); of the first substance listed, at infinite dilution; xn = mol fraction of the nth substance listed
# Condition: 323 K; Liquid; Chromatography; x1 = 0
Number only, no unit.

Examples with their reported activity coefficient follow.
- Compound: "CCc1ccco1 [2-ethylfuran] + CCCC[n+]1ccn(C)c1.O=S(=O)([N-]S(=O)(=O)C(F)(F)F)C(F)(F)F"
  activity coefficient: 1.49
- Compound: "Clc1ccccc1 [chlorobenzene] + CCCC[n+]1ccn(C)c1.O=S(=O)([N-]S(=O)(=O)C(F)(F)F)C(F)(F)F"
  activity coefficient: 1.52
- Compound: "c1ccccc1 [benzene] + CCCC[n+]1ccn(C)c1.O=S(=O)([N-]S(=O)(=O)C(F)(F)F)C(F)(F)F"
  activity coefficient: 0.957

# context switch: different compound, same activity coefficient
Record request: activity coefficient value, item Cc1ccccc1 [toluene] + CCCCn1cc[n+](C)c1.[Cl-]
7.24

* * *

# Protocol Summary: activity coefficient (dimensionless); of the first substance listed, at infinite dilution; xn = mol fraction of the nth substance listed
# Condition: 333 K; Liquid; Chromatography; x1 = 0
Observable: activity coefficient
Response field accepts a number only; no unit should be typed.

Some solved entries appear below for comparison.
- Compound: "c1ccccc1 [benzene] + CCCCn1cc[n+](C)c1.[Cl-]"
  activity coefficient: 4.15
- Compound: "Cc1ccco1 [2-methylfuran] + CCCC[n+]1ccn(C)c1.O=S(=O)([N-]S(=O)(=O)C(F)(F)F)C(F)(F)F"
  activity coefficient: 1.15
- Compound: "CCc1ccccc1 [ethylbenzene] + CCCCn1cc[n+](C)c1.[Cl-]"
  activity coefficient: 12.4

Could you tell me which activity coefficient is on file for CCO [ethanol] + CCCC[n+]1ccn(C)c1.O=S(=O)([N-]S(=O)(=O)C(F)(F)F)C(F)(F)F ?
1.37

Please give the measured activity coefficient for this compound: CCCO [propan-1-ol] + CCCC[n+]1ccn(C)c1.O=S(=O)([N-]S(=O)(=O)C(F)(F)F)C(F)(F)F
1.63

Which activity coefficient value is on record for c1ccoc1 [furan] + CCCCn1cc[n+](C)c1.[Cl-] ?
1.56
